Measured values drawn from ChEMBL document CHEMBL5727484 for this set.

# Test name: Cell-Based Assay of NHE-3 Activity: Rat NHE-3-mediated Na+-dependent H+ antiport was measured using a modification of the pH sensitive dye method originally reported by Tsien (Proc. Natl. Acad. Sci. USA. (1984) 81(23): 7436-7440). Opossum kidney (OK) cells were obtained from the ATCC and propagated per their instructions. The rat NHE-3 gene was introduced into OK cells via electroporation, seeded into 96 well plates and grown overnight. Medium was aspirated from the wells, cells were washed twice with NaCl-HEPES buffer (100 mM NaCl, 50 mM HEPES, 10 mM glucose, 5 mM KCl, 2 mM CaCl2, 1 mM MgCl2, pH 7.4), then incubated for 30 min at room temperature with NH4Cl-HEPES buffer (20 mM NH4Cl, 80 mM NaCl, 50 mM HEPES, 5 mM KCl, 2 mM CaCl2, 1 mM MgCl2, pH 7.4) containing 5 uM BCECF-AM (Invitrogen). Cells were washed twice with Ammonium free, Na+-free HEPES (100 mM choline, 50 mM HEPES, 10 mM glucose, 5 mM KCl, 2 mM CaCl2, 1 mM MgCl2, pH 7.4) and incubated in the same buffer for 10 minutes at room temperature to lower intracellular pH. […] Initial rates were plotted as the average 3-6 replicates, and pIC50 values were estimated using GraphPad Prism.
So I've got a bunch of compounds here, and I need their IC50 values.

INSERT INTO measurements (compound, property_label, endpoint_result) VALUES
  ('CN1Cc2c(Cl)cc(Cl)cc2C(c2cccc(S(=O)(=O)NCCOCCOCCNC(=O)Nc3ccc(NC(=O)NCCOCCOCCNS(=O)(=O)c4cccc(C5CN(C)Cc6c(Cl)cc(Cl)cc65)c4)cc3)c2)C1 (stereo not given)', 'IC50', '< 100 nM');

List reported IC50 for each of these compounds:
1. CN1Cc2c(Cl)cc(Cl)cc2C(c2cccc(S(=O)(=O)NCCOCCOCCOCCNC(=O)NCCCCNC(=O)NCCOCCOCCOCCNS(=O)(=O)c3cccc(C4CN(C)Cc5c(Cl)cc(Cl)cc54)c3)c2)C1 (stereo not given)
2. CN1Cc2c(Cl)cc(Cl)cc2C(c2cccc(S(=O)(=O)NCCOCCOCCOCCn3cc(COCc4cn(CCOCCOCCOCCNS(=O)(=O)c5cccc(C6CN(C)Cc7c(Cl)cc(Cl)cc76)c5)nn4)nn3)c2)C1 (stereo not given)

1. < 100 nM
2. < 100 nM
